Tested on: HS 578T breast
Outcomes: yes (1) = active, no (0) = inactive

Compound	Measurement target	Class name
Nc1ccc2c(c1)c(N)nn2C(=O)Nc1ccc(Cc2ccccc2)cc1	HS 578T breast	no (0)
CO[C@@]12[C@@H]3NC3CN1C1=C(C(=O)C(N)=C(C)C1=O)[C@@H]2COC(N)=O (stereo partly drawn)	HS 578T breast	no (0)
CC1COCC(C)N1C1=C(Cl)C(=O)c2ccccc2C1=O (stereo not drawn)	HS 578T breast	no (0)
CC/C=C\C/C=C\C[C@H](O)C/C=C1/C(=O)C=C[C@@H]1C/C=C\CCCC(=O)OC	HS 578T breast	no (0)
O=c1c2ccccc2oc2ccc(OCCCCCCN3CCCCCC3)cc12	HS 578T breast	no (0)
Oc1ccc(Cl)cc1Cc1cc(Cl)ccc1O	HS 578T breast	no (0)
CCOc1cc(-c2ccc[nH]2)[nH]c1/C=C1\N=C(C)C(C(=O)OC)=C1C	HS 578T breast	yes (1)
Nc1[nH]c(=O)ncc1CO	HS 578T breast	no (0)

---

List of TGI values.
Test system: BT-549 breast
Assay remarks: NCI tumour cell line growth inhibition, 48 h
Quantity: TGI

Compound	Test value
O=C1c2ccccc2-c2[nH]c3cn[nH]c(=O)c3c21	> 100 µM
CC/C=C\C/C=C\C[C@H](O)C/C=C1/C(=O)C=C[C@@H]1C/C=C\CCCC(=O)OC	4.01 µM
CC(=O)Oc1ccc2c(c1)CC[C@@H]1C2CC[C@]2(C)C(=O)NC(=O)CC12 (some centres not stated)	> 100 µM
Nc1[nH]c(=O)ncc1CO	> 100 µM
NCCOCC(N)C(=O)O (configuration not stated)	> 100 µM
CO[C@H]1C[C@H](O[C@H]2CC[C@]3(C=O)[C@H]4CC[C@]5(C)[C@@H](C6=CC(=O)OC6)CC[C@]5(O)[C@@H]4CC[C@]3(O)C2)O[C@H](C)[C@H]1O	0.818 µM
CC(NC(=O)c1ccccc1)(C(=O)O)C(=O)O	> 100 µM
Nc1nc(Cl)cc(NCC2(O)CCCC2)n1	> 100 µM
COc1ccc(CCc2cc(OC)c(OC)c(OC)c2)cc1	> 100 µM
O=C(c1ccco1)N(C(=S)OC12CC3CC(CC(C3)C1)C2)c1ccccc1	> 100 µM
NC(=O)Cc1nc2c(=O)[nH]cnc2n1C1OC(CO)C(O)C1O (configuration not stated)	> 100 µM
Cc1nc(N)nc2ccccc12	> 100 µM
O=c1[nH]c2ccccc2n1-c1n[nH]c2ccccc12	> 100 µM
O=C1c2ccccc2C(=O)N1c1nc(-c2ccc(Cl)cc2)cc(N2N=C(c3ccc(Br)cc3)CC2c2ccccc2)n1 (configuration not stated)	16.8 µM
CCOC(=O)C1CCCCN1CCc1c[nH]c2ccccc12 (configuration not stated)	> 100 µM
COc1c(C)c(C/C=C(\C)CC/C=C(\C)CCC=C(C)C)c(OC)c(OC)c1OC	> 100 µM
Cc1ccc(S(=O)(=O)n2cc(C#N)c(C#N)c2)cc1	45.2 µM
COc1cc(NC(=O)Nc2cnc(Nc3ccc(N4CCOCC4)cc3)nc2Oc2cccc(OC)c2)cc(OC)c1	5.74 µM
COc1cc([N+](=O)[O-])c2ncccc2c1[N+](=O)[O-]	20.2 µM
CCCNc1ncnc2[nH]ncc12	> 100 µM
Nc1ncnc2c1ncn2Cc1cccc(CCl)c1	25.8 µM
CSc1ccc(/C=C2\N=C(c3ccccc3)N(/N=C/c3cc4cc(C)ccc4nc3Cl)C2=O)cc1	56.5 µM
